- system_tested: human GST-PKR (Homo sapiens (Human), UniProt P19525)
- Sequence (P19525 whole entry): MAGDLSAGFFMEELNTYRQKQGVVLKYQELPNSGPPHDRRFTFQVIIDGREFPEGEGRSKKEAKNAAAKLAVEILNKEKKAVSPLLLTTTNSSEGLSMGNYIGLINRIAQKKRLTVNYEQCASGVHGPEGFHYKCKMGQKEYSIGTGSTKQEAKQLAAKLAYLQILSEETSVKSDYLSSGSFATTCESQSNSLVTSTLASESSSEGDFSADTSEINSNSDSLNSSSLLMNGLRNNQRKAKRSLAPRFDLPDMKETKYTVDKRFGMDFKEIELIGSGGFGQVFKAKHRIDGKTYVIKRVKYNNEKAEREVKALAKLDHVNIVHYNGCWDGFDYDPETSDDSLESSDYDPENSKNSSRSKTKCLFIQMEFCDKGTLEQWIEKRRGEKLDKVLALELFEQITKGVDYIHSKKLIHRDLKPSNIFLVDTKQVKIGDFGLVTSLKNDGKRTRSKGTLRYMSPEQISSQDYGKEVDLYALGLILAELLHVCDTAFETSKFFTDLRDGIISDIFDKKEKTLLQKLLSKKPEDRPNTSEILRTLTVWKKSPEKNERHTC
- protocol_description: PKR KinaseGlo Assay
- Format: biochemical
- measurement_conditions: recombinant human GST-PKR, 6.6 uM ATP

compound	unit_info	modifier_sign	IC50
Cc1ccoc1C(=O)Nc1cccc(C#Cc2cncc(-c3nnn(CCCO)n3)c2)c1 [Example 9]	nM	>	10000
Nc1ncc(-c2nn[nH]n2)cc1-c1cc2cc(NC(=O)Nc3ccc(Cl)c(C(F)(F)F)c3)ccc2s1 [Example 2]	nM	=	140
Nc1ncc(-c2nnn(CCCO)n2)cc1-c1cc2cc(NC(=O)Nc3cc(C(F)(F)F)cc(C(F)(F)F)c3)ccc2s1 [Example 6]	nM	=	66
Nc1ncc(-c2nnn(CCCO)n2)cc1-c1cc2cc(NC(=O)Nc3ccc(Cl)c(C(F)(F)F)c3)ccc2s1 [Example 3]	nM	=	39
Nc1ncc(-c2nnn(CCCO)n2)cc1-c1cc2cc(NC(=O)Nc3cc(F)cc(C(F)(F)F)c3)ccc2s1 [Example 5]	nM	=	76
